Taken from the C3SDB collision cross section collection.

Measurement context: [M+H]+; instrument: DT; stepped-field
Property: collision cross section (N2) (Å²)

Examples with their reported collision cross section (N2) follow.
>  <Compound>
Nc1ncnc2c1ncn2[C@H]1C[C@H](O)[C@@H](CO)O1 [2'-Deoxyadenosine]

>  <Numeric readout>
162.73

$$$$
>  <Compound>
N[C@@H](CCS)C(=O)O [Homocysteine]

>  <Numeric readout>
130.53

$$$$
>  <Compound>
NCCc1ccc(O)c(O)c1 [Dopamine]

>  <Numeric readout>
125.24

$$$$
>  <Compound>
CCCCC/C=C\C\C=C/C=C/C=C/[C@@H](SC[C@H](N)C(=O)O)[C@@H](O)CCCC(=O)O [Leukotriene E4]

>  <Numeric readout>
213.2

$$$$
>  <Compound>
N[C@@H](CCCC(=O)O)C(=O)O [L-2-Aminoadipic Acid]

>  <Numeric readout>
136.36

$$$$

a = NC(=O)c1ccc[n+]([C@@H]2O[C@H](COP(=O)(O)OP(=O)(O)OC[C@H]3O[C@@H](n4cnc5c(N)ncnc54)[C@H](O)[C@@H]3O)[C@@H](O)[C@H]2O)c1 [Nicotinamide Adenine Dinucleotide (NAD+)]
b = N[C@@H](Cn1ccc(=O)c(O)c1)C(=O)O [L-Mimosine]
Inquiry: Kindly compare a with b and tell me which has the lower collision cross section (N2) figure. Kindly state the label of the option you pick.
Reply text: b
